# assay.info: NCI Yeast Anticancer Drug Screen. Data for the bub3 strain (AID 167)
# assay.context: S. cerevisiae bub3 mutant strain, at 50.0 µM
Compounds without any hit were thinned out: in the full panel of roughly 79,000, 15% have a hit. Activity calls are given as the source filed them. No stated cut-off is given here; in the data, active means growth inhibition above about 70%; inactive means the rest.
Write down the outcome that applies. Available outcomes: Yes (active), No (inactive)

| structure.notation | category |
| --- | --- |
| CN(C)c1nc(NNS(=O)(=O)c2ccc(N)cc2)nc(N(C)C)n1 | No |

INPUT: Please let me know the test result on file for O=C(O)/C(=C/c1c(O)ccc2ccccc12)c1csc(-c2nc(/C(=C\c3c(O)ccc4ccccc34)C(=O)O)cs2)n1 .
OUTPUT: Yes

----------
# assay.info: NCI Yeast Anticancer Drug Screen. Data for the sgs1 mgt1 strain (AID 161)
# assay.context: S. cerevisiae sgs1 mgt1 strain, at 50.0 µM (retest, dose inferred, filed as 5.0), active compounds read high
The panel holds about 79,000 compounds, 15% with a hit somewhere; the sample as a whole holds those more often.
The threshold is inclusive: growth inhibition of exactly 60% counts as Satisfied; values below receive Not satisfied.

| compound | category |
| --- | --- |
| O=C1OC(=O)C2C3CCC(C3=C3CCCCC3)C12 (configuration not stated) | Not satisfied |
| O=C(NC(=S)Nc1ncc([N+](=O)[O-])s1)c1ccccc1C(=O)NC(=S)Nc1ncc([N+](=O)[O-])s1 | Not satisfied |
| Cc1cc(-c2ccccc2)nc2nc3ccccc3n12 | Satisfied |
| Cc1ccc(S(=O)(=O)Nc2ccc3c(c2)Cc2cc([N+](=O)[O-])ccc2-3)cc1 | Satisfied |
| CCOC(=O)[C@]12CCC[C@@]1(O)NC(=O)c1cnccc12 | Satisfied |
| CCN(CC)CC(O)CNc1ccc(C)c2sc3ccccc3c(=O)c12 (configuration not stated) | Satisfied |

INPUT: Threshold query (growth inhibition >= 60%) on CCC[CH2][Sn]([CH2]CCC)([O]C(=O)c1cc(F)cc(F)c1)[O]C(=O)c1cc(F)cc(F)c1
OUTPUT: Satisfied

INPUT: Say whether CCC(CC)(C(=O)Nc1ccc2c(c1)c(=O)c1ccccc1n2C)C(=O)Nc1ccc2c(c1)c(=O)c1ccccc1n2C shows growth inhibition of 60% or more.
OUTPUT: Satisfied

INPUT: Could you please find out whether CCC(=O)Sc1ccccc1C(=O)Nc1ccc(Cl)cc1 has growth inhibition that meets 60% or exceeds it?
OUTPUT: Not satisfied

----------
# assay.info: NCI Yeast Anticancer Drug Screen. Data for the mec2-1 strain (AID 157)
# assay.context: S. cerevisiae mec2-1 strain, at 50.0 µM
# Experimental: Growth inhibition of yeast strains with defined genetic alterations is measured as a screen for potential anti-cancer activity. Selected strains with alterations in DNA damage repair or cell cycle control were exposed to compounds and growth inhibition was measured relative to vehicle treated controls. The strain used in this assay is mec2-1
About 79,000 compounds went through this panel and 15% of them were active in at least one assay; those are over-represented in the sample as a whole. Active and inactive are the calls of the source. Cut-off read from the data, not from the text of the source: active = growth inhibition above about 70%; inactive = the rest.
Respond only with the outcome that fits, drawn from active, inactive

The examples below pair each entry with its known result.
| compound | category |
| --- | --- |
| N#CC(C#N)=C1CCC(CC2CCCCC2)CC1 (stereo not given) | active |
| Cn1cc(/C=C/[N+](=O)[O-])c2ccc(OCc3ccccc3)cc21 | inactive |
| C=C1C(=O)OC2CC1C(O)C/C(C)=C/CC/C(C)=C/C(O)CC2C (stereo not given) | inactive |
| COc1ccc(NC(=O)OC(C)C)c(OC)c1 | inactive |
| Nc1ccc2nc3c(nc2c1)C(=O)c1ccccc1-3 | active |
| CCOc1c(Br)cc(Br)cc1/C=N/NS(=O)(=O)c1ccc(C)cc1 | active |
| CCOC(=O)/C=C(\C)Sc1cc(O)c2ccccc2c1O | active |
| O=C(Nc1ccccc1)OCCc1ccc(Br)cc1 | inactive |

INPUT: For Cc1ccc2c(c1)[n+]([O-])c(N)c(C#N)[n+]2[O-] , which call appears in the assay record?
OUTPUT: inactive

INPUT: Record request — test call for CC(C)(N=Nc1ccc([N+](=O)[O-])cc1)[N+](=O)[O-]
OUTPUT: inactive

INPUT: // outcome(item) with item = FC(F)(F)c1[nH]nc(-c2cc3ccccc3o2)c1N=NN1CCOCC1
OUTPUT: active

INPUT: For COc1ccc2c(c1)CCc1c-2ccc(C)c1CCC(=O)O , what call appears in the results of this test?
OUTPUT: inactive

INPUT: What is the recorded call for this compound in the test? CCOC(=O)C(CCSC)C(=O)OCC
OUTPUT: inactive

INPUT: Name the outcome recorded for NC(=Nc1cc2ccccc2c2ccccc12)/N=C(/N)Nc1cc2ccccc2c2ccccc12 in the assay.
OUTPUT: inactive

INPUT: What is the recorded call for this compound in the test? O=C(/C=C/C(=O)c1ccc(O)cc1)c1ccccc1
OUTPUT: inactive

INPUT: What did the test return for O=c1ccccc(Br)c1O ?
OUTPUT: active

INPUT: GET /call?item= CCC[CH2][Ge]([CH2]CCC)([CH2]CCC)[O]C(C)=O returns the recorded outcome of this test.
OUTPUT: inactive

INPUT: What outcome does the record of this test show for CC(=O)OCc1ccc(O)c2ncccc12 ?
OUTPUT: active

INPUT: What was the test verdict on CCC1CCC(CC)C1=O (stereo not given) ?
OUTPUT: active

INPUT: Which outcome did this test record for the compound CC(=O)n1nc2c(c1CC(C)C)C(=O)C(Nc1ccccc1)=CC2=O ?
OUTPUT: inactive
